subject_of_test: HLA-A*0201 (human)
measurement_description: competition with 125I-labelled standard peptide for purified HLA, gel filtration
Recorded binding affinity ratio (IC50 of standard peptide / IC50 of test peptide) values for a group of binders are listed next.
Write no unit; give the number alone.

// below: answered binders
PLYDMSLL (modifications not checked) [PSA 95 PLYDMSLL]: 0.0002
PLYHSVYET (modifications not checked) [PSM 550 …]: 0.0002

Shifting focus to the binder that follows.
Ask: binding affinity ratio (IC50 of standard peptide / IC50 of test peptide) for PIPVHTVPL (modifications not checked) [PAP 140 …] ?
Result: 0.0002
